- testedOn: stPho1ΔL78 (Solanum tuberosum, UniProt P04045)
- Construct: the N-terminal (residues 23–446) and the C-terminal (residues 511–916); from tissue; host or cells: Solanum tuberosum mature tubers; purified stPho1 left about 4 weeks at room temperature to proteolyse
- Sequence (P04045 561-966, stated change not applied): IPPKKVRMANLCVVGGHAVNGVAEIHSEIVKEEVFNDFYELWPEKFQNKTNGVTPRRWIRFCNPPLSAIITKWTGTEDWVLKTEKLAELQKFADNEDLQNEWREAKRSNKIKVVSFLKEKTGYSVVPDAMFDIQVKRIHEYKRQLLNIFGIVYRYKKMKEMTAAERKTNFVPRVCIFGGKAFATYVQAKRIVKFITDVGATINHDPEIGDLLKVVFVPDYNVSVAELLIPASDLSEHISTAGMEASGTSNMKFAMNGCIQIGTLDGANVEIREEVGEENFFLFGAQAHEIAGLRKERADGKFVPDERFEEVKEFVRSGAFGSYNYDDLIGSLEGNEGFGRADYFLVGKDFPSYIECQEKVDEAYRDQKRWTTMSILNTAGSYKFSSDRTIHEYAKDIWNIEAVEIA
- Sequence (P04045 73-496, stated change not applied): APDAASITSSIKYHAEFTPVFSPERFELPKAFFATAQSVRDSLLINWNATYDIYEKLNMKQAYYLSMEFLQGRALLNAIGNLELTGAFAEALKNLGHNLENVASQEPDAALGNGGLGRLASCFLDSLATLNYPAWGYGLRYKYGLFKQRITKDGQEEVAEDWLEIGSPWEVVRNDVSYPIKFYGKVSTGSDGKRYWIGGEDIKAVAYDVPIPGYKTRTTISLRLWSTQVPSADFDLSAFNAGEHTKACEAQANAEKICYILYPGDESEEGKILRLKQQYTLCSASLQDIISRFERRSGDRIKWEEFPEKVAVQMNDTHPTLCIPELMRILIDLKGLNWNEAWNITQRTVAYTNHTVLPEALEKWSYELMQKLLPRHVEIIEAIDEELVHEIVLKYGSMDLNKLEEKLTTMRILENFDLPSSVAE
- experimentDescription: stPho1ΔL78 enzyme kinetics in the direction of glycogen synthesis
- Type: biochemical
- conditionSet: 30 °C, pH 6.0, glycogen 0.2% w/v, various Glc-1-P; read-out: Ki
propertyName: Ki (mM)
Write the value in mM as a bare number.

Qu. Input OC[C@H]1O[C@H](O)[C@H](O)[C@@H](O)[C@@H]1O , output reported Ki.
Ans. 38.4
